Readings of pIC50 for the listed compounds
target-of-assay: Dual specificity protein kinase CLK4 (Homo sapiens)
Sequence (Q9HAZ1 whole entry): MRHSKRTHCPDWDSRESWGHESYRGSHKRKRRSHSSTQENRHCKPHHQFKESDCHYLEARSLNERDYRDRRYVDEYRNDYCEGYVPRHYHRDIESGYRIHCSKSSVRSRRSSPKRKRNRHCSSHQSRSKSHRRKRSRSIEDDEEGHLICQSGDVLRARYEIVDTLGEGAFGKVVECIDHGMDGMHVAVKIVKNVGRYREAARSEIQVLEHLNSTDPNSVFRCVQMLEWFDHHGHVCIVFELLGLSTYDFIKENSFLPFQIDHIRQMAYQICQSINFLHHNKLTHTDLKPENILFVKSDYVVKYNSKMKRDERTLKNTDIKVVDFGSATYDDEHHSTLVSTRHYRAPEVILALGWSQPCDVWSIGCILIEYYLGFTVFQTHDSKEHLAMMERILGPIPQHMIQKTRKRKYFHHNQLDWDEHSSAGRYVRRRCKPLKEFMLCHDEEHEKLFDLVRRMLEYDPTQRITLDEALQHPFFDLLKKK
assay-text: Inhibition of full length recombinant human GST-tagged CLK4 expressed in baculovirus expression system by lantha screen kinase binding assay
pIC50: −log10 of the molar value.
recorded-endpoint: pIC50

INSERT INTO measurements (sample_smiles, recorded_endpoint, recorded_number) VALUES
  ('O=C1NC(=S)S/C1=C\c1ccc2ncsc2c1', 'pIC50', 7.50),
  ('O=C1NC(=S)S/C1=C\c1ccc2ncccc2c1', 'pIC50', 7.75);

###

target-of-assay: Myosin light chain kinase 2, skeletal/cardiac muscle (Homo sapiens, UniProt Q9H1R3)
Sequence (Q9H1R3 whole entry): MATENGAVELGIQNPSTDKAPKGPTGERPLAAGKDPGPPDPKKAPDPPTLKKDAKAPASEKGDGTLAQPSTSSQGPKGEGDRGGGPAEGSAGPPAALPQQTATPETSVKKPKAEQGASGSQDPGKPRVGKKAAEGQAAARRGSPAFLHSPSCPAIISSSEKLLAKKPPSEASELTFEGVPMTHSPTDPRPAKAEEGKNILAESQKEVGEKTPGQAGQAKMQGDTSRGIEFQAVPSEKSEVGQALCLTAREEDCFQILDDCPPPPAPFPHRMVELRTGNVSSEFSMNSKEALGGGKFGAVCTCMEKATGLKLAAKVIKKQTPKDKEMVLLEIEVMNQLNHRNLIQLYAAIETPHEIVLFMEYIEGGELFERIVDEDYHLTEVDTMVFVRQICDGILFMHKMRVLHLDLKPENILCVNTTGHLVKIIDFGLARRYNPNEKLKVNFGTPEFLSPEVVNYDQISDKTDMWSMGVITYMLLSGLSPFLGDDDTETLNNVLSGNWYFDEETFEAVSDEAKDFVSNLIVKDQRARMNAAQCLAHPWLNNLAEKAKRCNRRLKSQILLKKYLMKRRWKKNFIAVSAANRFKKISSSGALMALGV
assay-text: Inhibition of full length recombinant human N-terminal GST-tagged MLCK expressed in baculovirus expression system by lantha screen kinase binding assay
recorded-endpoint: IC50 (nM)

INSERT INTO measurements (sample_smiles, recorded_number) VALUES
  ('O=C1NC(=S)S/C1=C\c1ccc2ncccc2c1', 157);

###

Readings of IC50 for the listed molecules
target-of-assay: Phosphatidylinositol 4,5-bisphosphate 3-kinase catalytic subunit alpha isoform (Homo sapiens, UniProt P42336)
Sequence (P42336 whole entry, canonical isoform): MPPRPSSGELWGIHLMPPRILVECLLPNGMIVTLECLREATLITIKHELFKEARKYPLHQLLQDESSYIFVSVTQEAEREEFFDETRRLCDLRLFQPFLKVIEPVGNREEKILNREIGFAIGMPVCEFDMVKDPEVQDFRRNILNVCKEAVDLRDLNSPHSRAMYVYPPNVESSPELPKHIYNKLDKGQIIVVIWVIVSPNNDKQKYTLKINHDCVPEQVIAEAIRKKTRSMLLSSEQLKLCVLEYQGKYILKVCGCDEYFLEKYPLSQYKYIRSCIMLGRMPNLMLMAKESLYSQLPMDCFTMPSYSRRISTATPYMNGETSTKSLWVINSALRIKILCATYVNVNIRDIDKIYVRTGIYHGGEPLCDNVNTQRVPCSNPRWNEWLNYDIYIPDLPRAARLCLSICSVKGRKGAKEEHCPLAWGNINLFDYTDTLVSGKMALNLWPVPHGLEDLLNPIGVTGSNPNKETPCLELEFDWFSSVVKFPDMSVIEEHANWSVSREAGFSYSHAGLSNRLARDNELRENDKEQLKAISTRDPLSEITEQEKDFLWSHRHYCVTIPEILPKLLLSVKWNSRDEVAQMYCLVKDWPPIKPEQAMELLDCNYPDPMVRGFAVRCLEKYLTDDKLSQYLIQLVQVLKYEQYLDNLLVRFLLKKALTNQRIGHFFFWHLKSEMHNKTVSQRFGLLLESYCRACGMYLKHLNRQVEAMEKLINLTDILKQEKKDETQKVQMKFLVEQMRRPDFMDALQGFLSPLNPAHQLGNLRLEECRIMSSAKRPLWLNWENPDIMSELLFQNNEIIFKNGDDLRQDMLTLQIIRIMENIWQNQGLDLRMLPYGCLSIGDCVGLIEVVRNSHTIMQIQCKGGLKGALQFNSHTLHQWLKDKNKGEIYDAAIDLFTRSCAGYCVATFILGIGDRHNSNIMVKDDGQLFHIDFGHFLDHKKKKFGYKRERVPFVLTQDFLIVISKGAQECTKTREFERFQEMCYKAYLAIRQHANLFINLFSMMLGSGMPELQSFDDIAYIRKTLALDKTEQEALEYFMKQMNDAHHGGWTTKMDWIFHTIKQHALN
assay-text: Inhibition of PI3K p110alpha (unknown origin)
recorded-endpoint: IC50

INSERT INTO assay_data (molecule, recorded_endpoint, result) VALUES
  ('O=C1NC(=S)S/C1=C\c1ccc2ncsc2c1', 'IC50', '2.2 nM'),
  ('CC1C/C(=C\c2ccc3c(c2)CCO3)C(=O)O1 (stereo not drawn)', 'IC50', '650 nM'),
  ('O=C1NC(=S)S/C1=C\c1ccc2ncccc2c1', 'IC50', '2.6 nM');

###

target-of-assay: Casein kinase II (Homo sapiens, UniProt P19784+P67870+P68400)
Sequence (P67870 whole entry): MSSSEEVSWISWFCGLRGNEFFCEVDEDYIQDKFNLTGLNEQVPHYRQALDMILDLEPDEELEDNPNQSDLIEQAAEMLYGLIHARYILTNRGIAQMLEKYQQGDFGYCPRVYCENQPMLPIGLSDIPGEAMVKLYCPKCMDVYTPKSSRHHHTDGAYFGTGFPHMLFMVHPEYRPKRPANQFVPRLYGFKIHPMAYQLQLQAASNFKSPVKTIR
Sequence (P68400 whole entry): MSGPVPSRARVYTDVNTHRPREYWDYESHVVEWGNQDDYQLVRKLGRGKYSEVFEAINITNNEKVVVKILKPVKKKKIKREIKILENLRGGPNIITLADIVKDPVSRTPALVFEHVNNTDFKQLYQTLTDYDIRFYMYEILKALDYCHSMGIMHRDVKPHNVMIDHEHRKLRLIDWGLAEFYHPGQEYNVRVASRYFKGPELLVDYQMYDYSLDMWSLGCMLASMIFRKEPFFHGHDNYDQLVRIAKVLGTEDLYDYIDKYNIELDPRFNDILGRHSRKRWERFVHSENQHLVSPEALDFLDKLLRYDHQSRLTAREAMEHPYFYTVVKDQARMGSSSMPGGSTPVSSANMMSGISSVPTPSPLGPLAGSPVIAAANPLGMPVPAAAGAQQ
Sequence (P19784 whole entry): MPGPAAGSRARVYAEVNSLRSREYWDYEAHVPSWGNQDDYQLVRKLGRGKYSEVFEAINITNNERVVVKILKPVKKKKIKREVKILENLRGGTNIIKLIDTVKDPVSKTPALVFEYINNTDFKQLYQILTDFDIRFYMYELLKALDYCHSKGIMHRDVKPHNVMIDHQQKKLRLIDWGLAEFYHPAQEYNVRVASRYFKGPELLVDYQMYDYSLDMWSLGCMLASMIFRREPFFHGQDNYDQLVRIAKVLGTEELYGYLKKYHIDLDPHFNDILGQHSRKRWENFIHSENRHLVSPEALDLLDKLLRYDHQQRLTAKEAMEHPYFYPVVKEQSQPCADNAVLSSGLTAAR
assay-text: Inhibition of CK2 (unknown origin) using RRRDDDSDDD-NH2 as susbtrate incubated for 15 mins in presence of [gamma-32P]ATP
pIC50: −log10 of the molar value.
recorded-endpoint: pIC50

INSERT INTO results (sample_smiles, recorded_number) VALUES
  ('O=C1NC(=S)S/C1=C\c1ccc2ncsc2c1', 7.22),
  ('COc1ccc(/C=C2\NC(=O)SC2=O)cc1', 6.77),
  ('O=C1NC(=S)S/C1=C\c1ccc2c(c1)CCO2', 7.00);

###

target-of-assay: Protein kinase C beta type (Homo sapiens, UniProt P05771)
Sequence (P05771 whole entry): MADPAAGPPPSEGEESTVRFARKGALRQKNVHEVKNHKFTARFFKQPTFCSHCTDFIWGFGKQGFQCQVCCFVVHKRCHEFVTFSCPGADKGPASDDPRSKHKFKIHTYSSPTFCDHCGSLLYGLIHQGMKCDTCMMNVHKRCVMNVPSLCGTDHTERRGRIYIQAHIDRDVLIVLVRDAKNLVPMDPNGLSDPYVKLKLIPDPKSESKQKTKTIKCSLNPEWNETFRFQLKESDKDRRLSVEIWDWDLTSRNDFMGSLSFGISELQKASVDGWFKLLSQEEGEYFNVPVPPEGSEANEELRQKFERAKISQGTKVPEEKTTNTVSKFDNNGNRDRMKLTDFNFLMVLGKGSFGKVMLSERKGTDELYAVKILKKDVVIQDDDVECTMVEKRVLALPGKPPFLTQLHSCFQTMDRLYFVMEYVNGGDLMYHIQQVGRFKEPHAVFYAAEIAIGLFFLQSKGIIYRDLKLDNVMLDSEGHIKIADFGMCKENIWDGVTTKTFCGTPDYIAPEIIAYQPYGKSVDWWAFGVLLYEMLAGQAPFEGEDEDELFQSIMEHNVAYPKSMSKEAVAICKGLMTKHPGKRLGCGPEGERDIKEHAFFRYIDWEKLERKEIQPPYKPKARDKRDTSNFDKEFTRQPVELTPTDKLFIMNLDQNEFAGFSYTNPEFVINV
assay-text: Inhibition of PKCbeta (unknown origin) incubated for 15 mins in presence of [gamma-32P]ATP
measurement-conditions: read-out: IC50
Readings of IC50 for the listed compounds
recorded-endpoint: IC50

INSERT INTO results (sample_smiles, result) VALUES
  ('O=C1NC(=S)S/C1=C\c1ccc2ncccc2c1', '> 10 µM'),
  ('O=C1NC(=S)S/C1=C\c1ccc2ncsc2c1', '9.2 µM'),
  ('O=C1NC(=S)N/C1=C\c1ccc2ncsc2c1', '> 10 µM'),
  ('O=C1NC(=S)S/C1=C\c1ccc2c(c1)CCO2', '> 10 µM');

###

Readings of IC50 for the listed molecules
target-of-assay: Dual specificity tyrosine-phosphorylation-regulated kinase 1B (Homo sapiens, UniProt Q9Y463)
Sequence (Q9Y463 whole entry): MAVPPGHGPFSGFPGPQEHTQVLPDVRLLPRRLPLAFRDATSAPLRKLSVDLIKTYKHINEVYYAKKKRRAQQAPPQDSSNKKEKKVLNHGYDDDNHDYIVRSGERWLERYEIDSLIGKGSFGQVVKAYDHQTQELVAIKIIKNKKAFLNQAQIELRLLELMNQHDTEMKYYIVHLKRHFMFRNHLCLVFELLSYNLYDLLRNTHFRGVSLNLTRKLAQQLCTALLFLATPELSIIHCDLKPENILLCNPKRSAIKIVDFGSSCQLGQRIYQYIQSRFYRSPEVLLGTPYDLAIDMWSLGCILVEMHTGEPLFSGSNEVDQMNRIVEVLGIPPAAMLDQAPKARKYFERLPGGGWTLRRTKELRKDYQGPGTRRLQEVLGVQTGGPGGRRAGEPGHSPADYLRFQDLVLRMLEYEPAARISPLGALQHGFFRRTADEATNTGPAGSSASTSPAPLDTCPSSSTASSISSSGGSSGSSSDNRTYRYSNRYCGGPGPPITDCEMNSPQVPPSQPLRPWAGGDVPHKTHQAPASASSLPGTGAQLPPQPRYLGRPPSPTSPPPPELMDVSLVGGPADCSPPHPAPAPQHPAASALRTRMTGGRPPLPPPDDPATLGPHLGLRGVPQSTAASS
assay-text: Inhibition of full length recombinant human GST-tagged DYRK1B expressed in insect cells using KKISGRLSPIMTEQ-NH2 as substrate incubated for 15 mins in presence of [gamma-32P]ATP
recorded-endpoint: IC50 (nM)

INSERT INTO measurements (molecule, unit_of_measurement, recorded_number) VALUES
  ('O=C1NC(=S)S/C1=C\c1ccc2ncsc2c1', 'nM', 70),
  ('O=C1NC(=S)S/C1=C\c1ccc2c(c1)CCO2', 'nM', 300),
  ('CC1C/C(=C\c2ccc3c(c2)CCO3)C(=O)O1 (centres undefined)', 'nM', 2640),
  ('O=C1NC(=O)/C(=C/c2ccc3nccnc3c2)S1', 'nM', 80);

###

assay-text: Half life in rat plasma at 1 uM by LC-MS/MS analysis
Format: ADME, cell-free
recorded-endpoint: half-life at 1 µM

INSERT INTO measurements (compound, recorded_endpoint, result) VALUES
  ('CC1C/C(=C\c2ccc3c(c2)CCO3)C(=O)O1 (stereo not drawn)', 'half-life at 1 µM', '> 2 h'),
  ('O=C1OCC/C1=C\c1ccc2c(c1)CCO2', 'half-life at 1 µM', '> 2 h'),
  ('CCOC(=O)[C@H](Cc1ccccc1)NC(C)=O', 'half-life at 1 µM', '< 0.0833 h');
